molecular target: HLA-A*29:02; experiment: IEDB peptide-MHC binding, purified MHC/competitive/radioactivity; filed as Kd, often an IC50 or EC50 that approximates it; bounds were set here for any values at or beyond the usual limits of such assays; conditions: source organism: SARS coronavirus Tor2
The entries below come with measured Kd values attached.
Please reply with the bare figure in nM and do not write the unit itself.

In [3]: df
Out[3]:
   sequence_content  quantity_kind  recorded_number
0         FYFTNDVSF             Kd              413

Data request: # query: Kd of entry NQDLNGNWY
Data returned: 854

Data request: What about this sequence? ILSDDAVVCY
Data returned: 320

Data request: What about this sequence? RFLYIIKLVF
Data returned: 1050

* * *

molecular target: HLA-A*33:01; assay: IEDB peptide-MHC binding, purified MHC/competitive/radioactivity; filed as Kd, often an IC50 or EC50 that approximates it; bounds were set here for any values at or beyond the usual limits of such assays; conditions: source organism: SARS coronavirus Tor2
pKd: −log10 of the molar value.
Threshold rule: pKd greater than or equal to 6 is Criterion met; below that, Criterion not met.

Worked examples, 7 sequences total:
>>> df
   sequence_content        label_value
0         AFHTPAFDK  Criterion not met
1        VLTSEEVVLK  Criterion not met
2         FLKEQHCQK      Criterion met
3        FVFPLNSKVK  Criterion not met
4        PVNQFTGYLK  Criterion not met
5        SFIEDLLFNK      Criterion met
6         IMASLVLAR      Criterion met

Data request: Is pKd at least 6? Consider RQLFKPLTK
Data returned: Criterion not met

* * *

molecular target: HLA-A*23:01; assay: IEDB peptide-MHC binding, purified MHC/competitive/radioactivity; filed as Kd, often an IC50 or EC50 that approximates it; bounds were set here for any values at or beyond the usual limits of such assays; details: source organism: SARS coronavirus Tor2
pKd: −log10 of the molar value.
Threshold rule: pKd greater than or equal to 9 is met; below that, not met.

   sequence_content  label_value
0        HSYGIDLKSY      not met

Data request: Is pKd at least 9? Consider HMVVKSALL
Data returned: not met

Data request: What about this sequence? IFFASFYYIW
Data returned: met

Data request: What about this sequence? RFLYIIKLVF
Data returned: met

Data request: What about this sequence? GFELTSMKY
Data returned: not met

Data request: What about this sequence? YYSLLMPIL
Data returned: not met

* * *

target: HLA-A*03:01; experiment: IEDB peptide-MHC binding, purified MHC/competitive/radioactivity; filed as Kd, often an IC50 or EC50 that approximates it; bounds were set here for any values at or beyond the usual limits of such assays; settings: source organism: Vaccinia virus WR
quantity kind: pKd
Keep it numeric: pKd is minus log10 of the concentration in mol/L.

Below, 5 sequences whose answers are already recorded.
>>> print(df.to_string())
   sequence_content  recorded_number
0         NLTDTNFKK             5.91
1        AFLLRHYYNK             6.13
2        NVHEHINDQK             5.39
3         ESIEDKFDY             5.12
4        KAIEKDRLDK             4.90

Now, please, on to the next sequence.
Data request: # query: pKd of entry RALKAYFTAK
Data returned: 7.91

* * *

The entries below come with measured Kd values attached.
target: HLA-B*45:01; experiment: IEDB peptide-MHC binding, purified MHC/competitive/radioactivity; filed as Kd, often an IC50 or EC50 that approximates it; bounds were set here for any values at or beyond the usual limits of such assays; conditions: source organism: SARS coronavirus Tor2
Please reply with the bare figure in nM and do not write the unit itself.

In [3]: df
Out[3]:
   sequence_content  recorded_number
0         GETALALLL              448
1        TEAFEKMVSL             4460
2         TEHSWNADL              331

Now, please, on to the next sequence.
Data request: # query: Kd of entry VELKHFFFA
Data returned: 15.8

* * *

biological target: HLA-A*02:06; test: IEDB peptide-MHC binding, purified MHC/competitive/radioactivity; filed as Kd, often an IC50 or EC50 that approximates it; bounds were set here for any values at or beyond the usual limits of such assays; settings: source organism: Vaccinia virus WR
quantity kind: Kd

>>> print(df.to_string())
   sequence_content  target_under_test   result
0        VLQQNNSFII        HLA-A*02:06  9.65 µM

Data request: # query: Kd of entry KIVQLPKRGV
Data returned: 2.25 µM

Data request: What about this sequence? ITLILSNKLL
Data returned: 3.89 µM

* * *

target: HLA-A*02:01; experiment: IEDB peptide-MHC binding, purified MHC/competitive/fluorescence; bounds were set here for any values at or beyond the usual limits of such assays; conditions: source organism: Zaire ebolavirus
pIC50: −log10 of the molar value.
Threshold rule: pIC50 greater than or equal to 5 is Condition met; below that, Condition not met.

>>> df
   sequence_content        label_value
0         IDQIIHDFV  Condition not met
1         LLNLSGVNN  Condition not met
2         HMMVIFRLM      Condition met
3         QKIWMAPSL  Condition not met

Data request: Is pIC50 at least 5? Consider SLPKTSGHY
Data returned: Condition not met

Data request: What about this sequence? YVQLESRFT
Data returned: Condition not met

Data request: What about this sequence? LLQRWGGTC
Data returned: Condition met

Data request: What about this sequence? GLITNTIAG
Data returned: Condition met

Data request: What about this sequence? RTIHHASAP
Data returned: Condition not met

Data request: What about this sequence? FARLLNLSG
Data returned: Condition not met

Data request: What about this sequence? EQGLIQYPT
Data returned: Condition not met

Data request: What about this sequence? AIVNAQPKC
Data returned: Condition not met

* * *

biological target: HLA-B*08:01; assay: IEDB peptide-MHC binding, purified MHC/competitive/radioactivity; filed as Kd, often an IC50 or EC50 that approximates it; bounds were set here for any values at or beyond the usual limits of such assays; conditions: source organism: Vaccinia virus WR
quantity kind: pKd
Keep it numeric: pKd is minus log10 of the concentration in mol/L.

Below, 5 sequences whose answers are already recorded.
In [3]: df
Out[3]:
   sequence_content  recorded_number
0         SIIVLFQRF             5.07
1         KSSPETQQM             5.63
2         SIKSKSRRL             7.53
3         FIRYRMHPM             9.68
4         LMKERISSE             7.09

Now, please, on to the next sequence.
Data request: # query: pKd of entry SMTKKFKTI
Data returned: 6.82

* * *

molecular target: HLA-A*31:01; test: IEDB peptide-MHC binding, purified MHC/competitive/radioactivity; filed as Kd, often an IC50 or EC50 that approximates it; bounds were set here for any values at or beyond the usual limits of such assays; conditions: source organism: Vaccinia virus WR
Lab note: compare Kd with 1000 nM, writing Met if less and Not met if equal or more.

Worked examples, 6 sequences total:
>>> print(df.to_string())
   sequence_content  label_value
0         KVVDTFISY      Not met
1        DIEIGNFYIR          Met
2         STGESSILR      Not met
3         RQILDNAAK      Not met
4         SSLVKNVNK      Not met
5         FLEFSNRVY      Not met

Data request: Check if Kd falls below 1000 nM for NAISSRVDR .
Data returned: Not met

Data request: What about this sequence? IMFMLIFNVK
Data returned: Met

Data request: What about this sequence? SVKYYGRSTK
Data returned: Not met

* * *

molecular target: HLA-A*33:01; test: IEDB peptide-MHC binding, purified MHC/competitive/radioactivity; filed as Kd, often an IC50 or EC50 that approximates it; bounds were set here for any values at or beyond the usual limits of such assays; details: source organism: Vaccinia virus WR
quantity kind: Kd

>>> print(df.to_string())
   sequence_content  target_under_test  quantity_kind     result
0         LALTDVEKR        HLA-A*33:01             Kd  ≥ 73.3 µM
1        KSRRLNLFSK        HLA-A*33:01             Kd    ≥ 70 µM
2        QFIKPVSDLY        HLA-A*33:01             Kd  ≥ 42.6 µM
3        KVKTELVMDK        HLA-A*33:01             Kd    ≥ 70 µM
4        DTSEKYSKGY        HLA-A*33:01             Kd    ≥ 70 µM

Data request: # query: Kd of entry NVHEHINDQK
Data returned: ≥ 29.2 µM

Data request: What about this sequence? KAIEKDRLDK
Data returned: ≥ 70 µM

Data request: What about this sequence? QFNFNGHTY
Data returned: ≥ 64.6 µM

Data request: What about this sequence? RQILDNAAK
Data returned: ≥ 77.7 µM

Data request: What about this sequence? ETFKIDAVRY
Data returned: ≥ 70 µM

Data request: What about this sequence? VALSSLVSK
Data returned: ≥ 39.8 µM

Data request: What about this sequence? VVVQIDPEY
Data returned: ≥ 77.7 µM
